biological target: Sodium-dependent serotonin transporter (Rattus norvegicus, UniProt P31652)
Sequence (P31652 whole entry): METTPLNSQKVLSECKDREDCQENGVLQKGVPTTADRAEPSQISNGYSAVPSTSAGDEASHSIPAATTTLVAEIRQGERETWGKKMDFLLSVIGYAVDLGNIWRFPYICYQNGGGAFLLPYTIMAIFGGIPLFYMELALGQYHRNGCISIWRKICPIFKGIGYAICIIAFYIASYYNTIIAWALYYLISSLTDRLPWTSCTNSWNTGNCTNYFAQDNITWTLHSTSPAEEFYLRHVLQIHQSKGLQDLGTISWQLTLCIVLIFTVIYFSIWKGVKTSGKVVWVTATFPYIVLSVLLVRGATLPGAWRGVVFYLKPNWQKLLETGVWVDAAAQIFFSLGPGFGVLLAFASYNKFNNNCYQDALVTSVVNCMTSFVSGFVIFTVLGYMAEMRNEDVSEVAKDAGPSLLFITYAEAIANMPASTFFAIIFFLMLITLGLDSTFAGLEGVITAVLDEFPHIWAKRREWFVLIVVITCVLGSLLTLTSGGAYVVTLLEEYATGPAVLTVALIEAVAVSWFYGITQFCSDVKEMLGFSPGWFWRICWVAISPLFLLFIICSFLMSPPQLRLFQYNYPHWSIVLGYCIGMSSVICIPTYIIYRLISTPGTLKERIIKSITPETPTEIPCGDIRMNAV
pIC50: −log10 of the molar value.
Response key: satisfied means pIC50 >= 6; not satisfied means pIC50 < 6.

Check out these entries, answers already filled in.
- compound: "Fc1ccc(CCN2CCN3CC2CCC3C(c2ccccc2)c2ccccc2)cc1 (stereo not given)"
  label: "not satisfied"
- compound: "COc1ccc(CN2CCN3C[C@H]2CC[C@@H]3C(c2ccccc2)c2ccccc2)cc1"
  label: "not satisfied"
- compound: "Fc1ccc(CNC2CCC(C(c3ccccc3)c3ccccc3)N(Cc3ccc(F)cc3)C2)cc1 (stereo not given)"
  label: "not satisfied"

Prompt: Is pIC50 at least 6? Consider O=S(=O)(Nc1ccc(CN2CCN3CC2CCC3C(c2ccccc2)c2ccccc2)cc1)c1ccc(Cl)cc1 (stereo not given)
Response: not satisfied

Prompt: Form field: pIC50 at least 6? Entry: N#Cc1ccc(CNC2CCC(C(c3ccccc3)c3ccccc3)NC2)cc1 (stereo not given)
Response: satisfied
